System tested: wild type transthyretin (WT-TTR) (Homo sapiens)
Construct: made in house; host or cells: E. coli BL21 (DE3), pET23a plasmid
Protocol description: WT-TTR amyloid fibril formation assay (turbidimetry, acid-induced)
Type: biochemical
Condition summary: WT-TTR 3.6 μM, 1:1 TTR-compound stoichiometry, pH 4.4, 72 hours, 37° C., normalized to no-compound control (100%)
Quantity kind: Fibril Formation (%)

compound=O=C(O)CC[C@@H](C(=O)O)N1C(=O)/C(=C/c2c(Cl)cccc2Cl)SC1=S system_tested="wild type transthyretin (WT-TTR) (Homo sapiens)" units_symbol=% measured=26
compound="COc1cc(/C=C2/SC(=S)N(CC(=O)O)C2=O)cc(Cl)c1O [AT50-A00 (E)]" system_tested="wild type transthyretin (WT-TTR) (Homo sapiens)" units_symbol=% measured=26
compound=COc1cc(/C=C2\SC(=S)N(CC(=O)O)C2=O)cc(C)c1O system_tested="wild type transthyretin (WT-TTR) (Homo sapiens)" units_symbol=% measured=21
